IC50 listing for selected binders.
Target: HLA-DR7 (DRB1*0701) (human)
Assay: competition binding
Conditions: chains peptide; modification not given
valueType: IC50 (nM)

INSERT INTO results (binder, valuetype, endpointresult) VALUES
  ('SSDLYLVTRHADVIPVRRRGDSRGSLL [13N 1127-1153]', 'IC50', 17),
  ('KNQVEGEVQIVSTAAQTFLAT [10N 1052-1072]', 'IC50', 7);
